Source of measurements: patent US20220096516A1

# Test system: LHPP gene
# Protocol: High-throughput screening of saRNAs targeting LHPP promoter: LHPP mRNA by one-step RT-qPCR in Huh7 cells
# Type: cell-based, human
# Experimental Setup: 10 nM saRNA, 72 hours, relative to control (Mock)
d = 2'-deoxy (DNA); r = 2'-OH (RNA)
Readout Type: Fold of changes in relative LHPP mRNA expression level (log2)
// note: answer is a bare numeric in log2

Consider the reported Fold of changes in relative LHPP mRNA expression level (log2) for these substances:
RAG7-914: saRNA duplex; sense CUUCUUUGAAAGCUCAAAGTT (SEQ ID NO: 143), antisense CUUUGAGCUUUCAAAGAAGTT (SEQ ID NO: 307) (sugars from the 5' end r19 d2, backbone not given here) : 0.19
RAG7-681: saRNA duplex; sense CCUCAUCUAUGCAGGGCUGTT (SEQ ID NO: 149), antisense CAGCCCUGCAUAGAUGAGGTT (SEQ ID NO: 313) (sugars from the 5' end r19 d2, backbone not given here) : 0.17
RAG7-104: saRNA duplex; sense AAGCUUCCGAAAAGGACACTT (SEQ ID NO: 43), antisense GUGUCCUUUUCGGAAGCUUTT (SEQ ID NO: 207) (sugars from the 5' end r19 d2, backbone not given here) : 0.50
RAG7-94: saRNA duplex; sense AAAGGACACCGUUUCAGGGTT (SEQ ID NO: 13), antisense CCCUGAAACGGUGUCCUUUTT (SEQ ID NO: 177) (sugars from the 5' end r19 d2, backbone not given here) : 0.72
RAG7-902: saRNA duplex; sense CUCAAAGCUAUGUUGGACCTT (SEQ ID NO: 50), antisense GGUCCAACAUAGCUUUGAGTT (SEQ ID NO: 214) (sugars from the 5' end r19 d2, backbone not given here) : 0.46

q: Let me know recorded Fold of changes in relative LHPP mRNA expression level (log2) for RAG7-169: saRNA duplex; sense UUGACCUUUCUUAGGGACUTT (SEQ ID NO: 61), antisense AGUCCCUAAGAAAGGUCAATT (SEQ ID NO: 225) (sugars from the 5' end r19 d2, backbone not given here) , thanks.
a: 0.42

q: Let me know recorded Fold of changes in relative LHPP mRNA expression level (log2) for RAG7-149: saRNA duplex; sense GUUUUCUGCUUUUCCUGCUTT (SEQ ID NO: 99), antisense AGCAGGAAAAGCAGAAAACTT (SEQ ID NO: 263) (sugars from the 5' end r19 d2, backbone not given here) , thanks.
a: 0.29

q: Let me know recorded Fold of changes in relative LHPP mRNA expression level (log2) for RAG7-92: saRNA duplex; sense AGGACACCGUUUCAGGGGCTT (SEQ ID NO: 155), antisense GCCCCUGAAACGGUGUCCUTT (SEQ ID NO: 319) (sugars from the 5' end r19 d2, backbone not given here) , thanks.
a: 0.15

* * *

# Tested on: LHPP gene
# Protocol: High-throughput screening of saRNAs targeting LHPP promoter: LHPP mRNA by one-step RT-qPCR in Huh7 cells
# Type: cell-based, human
# Experimental Setup: 10 nM saRNA, 72 hours, relative to control (Mock)
d = 2'-deoxy (DNA); r = 2'-OH (RNA)
Readout Type: Fold of changes in relative LHPP mRNA expression level (fold)
// note: answer is a bare numeric in fold

RAG7-194: saRNA duplex; sense GGUGCCUUCUUGUCUCAAUTT (SEQ ID NO: 48), antisense AUUGAGACAAGAAGGCACCTT (SEQ ID NO: 212) (sugars from the 5' end r19 d2, backbone not given here) : 1.38
RAG7-694: saRNA duplex; sense AGGUCCUAUGCAUCCUCAUTT (SEQ ID NO: 3), antisense AUGAGGAUGCAUAGGACCUTT (SEQ ID NO: 167) (sugars from the 5' end r19 d2, backbone not given here) : 1.88
RAG7-687: saRNA duplex; sense AUGCAUCCUCAUCUAUGCATT (SEQ ID NO: 162), antisense UGCAUAGAUGAGGAUGCAUTT (SEQ ID NO: 326) (sugars from the 5' end r19 d2, backbone not given here) : 1.10
RAG7-846: saRNA duplex; sense AAGGUUCCGAGGGGCCAUUTT (SEQ ID NO: 11), antisense AAUGGCCCCUCGGAACCUUTT (SEQ ID NO: 175) (sugars from the 5' end r19 d2, backbone not given here) : 1.68
RAG7-123: saRNA duplex; sense CGCUGAUCUCCUGGGAAGATT (SEQ ID NO: 68), antisense UCUUCCCAGGAGAUCAGCGTT (SEQ ID NO: 232) (sugars from the 5' end r19 d2, backbone not given here) : 1.30
RAG7-905: saRNA duplex; sense AAGCUCAAAGCUAUGUUGGTT (SEQ ID NO: 92), antisense CCAACAUAGCUUUGAGCUUTT (SEQ ID NO: 256) (sugars from the 5' end r19 d2, backbone not given here) : 1.24

q: Let me know recorded Fold of changes in relative LHPP mRNA expression level for RAG7-102: saRNA duplex; sense GCUUCCGAAAAGGACACCGTT (SEQ ID NO: 96), antisense CGGUGUCCUUUUCGGAAGCTT (SEQ ID NO: 260) (sugars from the 5' end r19 d2, backbone not given here) , thanks.
a: 1.23

q: Let me know recorded Fold of changes in relative LHPP mRNA expression level for RAG7-907: saRNA duplex; sense GAAAGCUCAAAGCUAUGUUTT (SEQ ID NO: 22), antisense AACAUAGCUUUGAGCUUUCTT (SEQ ID NO: 186) (sugars from the 5' end r19 d2, backbone not given here) , thanks.
a: 1.55

q: Let me know recorded Fold of changes in relative LHPP mRNA expression level for RAG7-902: saRNA duplex; sense CUCAAAGCUAUGUUGGACCTT (SEQ ID NO: 50), antisense GGUCCAACAUAGCUUUGAGTT (SEQ ID NO: 214) (sugars from the 5' end r19 d2, backbone not given here) , thanks.
a: 1.38

q: Let me know recorded Fold of changes in relative LHPP mRNA expression level for RAG7-171: saRNA duplex; sense CUUUGACCUUUCUUAGGGATT (SEQ ID NO: 80), antisense UCCCUAAGAAAGGUCAAAGTT (SEQ ID NO: 244) (sugars from the 5' end r19 d2, backbone not given here) , thanks.
a: 1.27

q: Let me know recorded Fold of changes in relative LHPP mRNA expression level for RAG7-704: saRNA duplex; sense UUCUCAGCCCAGGUCCUAUTT (SEQ ID NO: 112), antisense AUAGGACCUGGGCUGAGAATT (SEQ ID NO: 276) (sugars from the 5' end r19 d2, backbone not given here) , thanks.
a: 1.19

q: Let me know recorded Fold of changes in relative LHPP mRNA expression level for RAG7-138: saRNA duplex; sense UUCCUGCUCUUUGUCCGCUTT (SEQ ID NO: 53), antisense AGCGGACAAAGAGCAGGAATT (SEQ ID NO: 217) (sugars from the 5' end r19 d2, backbone not given here) , thanks.
a: 1.36

q: Let me know recorded Fold of changes in relative LHPP mRNA expression level for RAG7-95: saRNA duplex; sense AAAAGGACACCGUUUCAGGTT (SEQ ID NO: 12), antisense CCUGAAACGGUGUCCUUUUTT (SEQ ID NO: 176) (sugars from the 5' end r19 d2, backbone not given here) , thanks.
a: 1.67

q: Let me know recorded Fold of changes in relative LHPP mRNA expression level for RAG7-35: saRNA duplex; sense GGUUUGCACCCGGUCUUCUTT (SEQ ID NO: 24), antisense AGAAGACCGGGUGCAAACCTT (SEQ ID NO: 188) (sugars from the 5' end r19 d2, backbone not given here) , thanks.
a: 1.53

q: Let me know recorded Fold of changes in relative LHPP mRNA expression level for RAG7-894: saRNA duplex; sense UAUGUUGGACCAGAAGUAATT (SEQ ID NO: 37), antisense UUACUUCUGGUCCAACAUATT (SEQ ID NO: 201) (sugars from the 5' end r19 d2, backbone not given here) , thanks.
a: 1.45

q: Let me know recorded Fold of changes in relative LHPP mRNA expression level for RAG7-702: saRNA duplex; sense CUCAGCCCAGGUCCUAUGCTT (SEQ ID NO: 140), antisense GCAUAGGACCUGGGCUGAGTT (SEQ ID NO: 304) (sugars from the 5' end r19 d2, backbone not given here) , thanks.
a: 1.14
